Test target: T1, Recombinant human B7-H3 (human, UniProt Q5ZPR3 29-466, limits assumed)
T1 construct: also called CD276; B7RP-2
T1 sequence: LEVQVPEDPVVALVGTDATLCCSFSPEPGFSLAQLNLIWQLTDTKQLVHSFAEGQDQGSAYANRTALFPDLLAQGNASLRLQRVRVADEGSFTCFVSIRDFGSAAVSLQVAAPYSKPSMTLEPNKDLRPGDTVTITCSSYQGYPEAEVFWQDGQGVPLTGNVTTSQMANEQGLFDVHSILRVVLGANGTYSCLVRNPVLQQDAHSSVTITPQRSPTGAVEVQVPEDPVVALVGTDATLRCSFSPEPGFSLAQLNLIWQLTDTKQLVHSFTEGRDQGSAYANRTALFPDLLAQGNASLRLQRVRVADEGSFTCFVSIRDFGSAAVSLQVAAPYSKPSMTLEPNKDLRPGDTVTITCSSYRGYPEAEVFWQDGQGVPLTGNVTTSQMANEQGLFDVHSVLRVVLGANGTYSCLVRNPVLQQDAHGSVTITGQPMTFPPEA
Test details: ELISA, recombinant human B7-H3 coated on plate

Binder: SCT-Da333 (antibody, V domains shown) VH: QVQLQQSGPELVRPGVSVKISCKGSGYTFTDYAVHWVKQSHAKSLEWIGVINTYSGNTYYNLHFKGKATMTVDKSSSTAYMELARLTSEDSAIYYCARRRGSHRDAYFDYWGQGTTLTVSS VL: DIVMTQSHKFMSTSVGDRVSITCRASQDVSTAVAWYQQKPGQSPKLLIYSASYRYTGVPDRFTVSGSGTDFTFTISSVQAEDLAVYYCQQHYSTPWTFGGGTKLEIK
EC50 / nM: 0.00833
--
Binder: SCT-Da250 (antibody, V domains shown) VH: QGQMQQSGAELVKPGASVRLSCKTSGFTFSSFYISWLKQKPGQSLEWIAWIYAGPGYTSYNQKFTGKAQLTVDTSSSTAYMQFSSLTTEDSAIYYCARHVGRQRGYFDVWGAGTTVTVSS VL: DIVMTQSHKFMSTSVGDRVSITCKASQDVSTAVAWYQQKPGQSPKLLIYSASYRYTGVPDHFTVSGSGTDFTFTISSVQAEDLAVYYCQQHYSTPWTFGGGTKLEIK
EC50 / nM: 0.0226
--
Binder: SCT-Da192 (antibody, V domains shown) VH: EVQLQQSGPELVKPGASVKISCKTSGYTFTEYTMHWVKQSHGKSLEWIGVINPNNGGTTYNQKFKGKATLTVDKSSSTAYMELRSLTSEDSAVYYCARPHSLLRLRREFDYWGQGTTLTVSS VL: QIVLTQSPALMSASPGEKVTMTCSASSSVSYMYWYQQKPRSSPKPWIYLTSNLASGVPARFSGSGSGTSYSLTISSMEAEDAATYYCQQWSSNPLTFGAGTKLELK
EC50 / nM: 0.0109
--
Binder: SCT-Da148 (antibody, V domains shown) VH: EVQLQQSGAELVKPGASVKLSCTASGVNIKDTYIHWVKQRPEQGLEWIGRIDPANGNRKYDPKFQGKATITADSSSNTAYLQLSSLTSEDTAVYYCARDGYYAPGYWGQGTTLTVSS VL: DIVMTQSQKFMSTSVGDRVSVTCKASQNVGTDVAWYQQKPGQSPKLLIYSASYRFSGVPDRFTGSGSGTDFSLAISNVQSEDLAEYFCQQYNSYPYTFGGGAKLEIK
EC50 / nM: 0.0076
--
Binder: SCT-Da182 (antibody, V domains shown) VH: EVQLQQSGPELVKPGASMKISCKVSGFSFTGYTMNWVKQSHGKNLEWIGLINTYNGGTFYNQKFKAKATLTVDKSSSTAHMELLSLTSEDSAVYYCARSPGRYSMDYWGQGTSVTVSS VL: DIVLTQSPASLAVSLGQRATISCKASQSVDYNGYSYLNWYQQKPGQPPKLLIYPASNLESGIPARFSGSGSGTDFTLNIHPVEEEDAATYYCQQSKEDPYTFGGGTKLEIK
EC50 / nM: 0.0105
